- assay_procedure: Tissue distribution after single oral PU-48 SNEDDS
- Assay type: in vivo
- particulars: male, testicle; 12 h, rat, oral PU-48 SNEDDS 12 mg/kg; read-out: Concentration of PU-48 in testicle
quantity_kind: concentration at 12 h (ng/g)
Quick reminder: number only, in ng/g, skip the unit.

Any idea what its concentration at 12 h is? The compound is "COC(=O)c1sc2nc3ccc(OC)cc3cc2c1N" 1.5

---

- assay_procedure: Plasma pharmacokinetics after single oral PU-48 SNEDDS
- Type: in vivo, rat
- particulars: plasma; 2 h, rat, oral PU-48 SNEDDS 12 mg/kg
quantity_kind: concentration at 2 h (ng/mL)
Write the number in ng/mL without appending the unit.

Request the reported concentration at 2 h associated with "COC(=O)c1sc2nc3ccc(OC)cc3cc2c1N" 19.7
